# method.notes: The hydrolytic kinetics expressed as Kobs was measured at 9.4 pH at 36 degree C
# Format: ADME
# details: pH 9.4
measured.quantity: K obs (min⁻¹)

C[N+]1(COC(=O)C(c2ccccc2)C2CCCC2)CCCC1.[Cl-] (stereo unspecified) :: 0.139

====

# Organism: Sus scrofa
# method.notes: Half life period was measured at 37 degree C in […] from d[acid]/dt.
# Type: ADME
# details: pig, in vitro; in the assay text read “esterase” for “plasma”
measured.quantity: T1/2 (h)

CCC(C(=O)OC[N+](CC)(CC)CC)c1ccccc1.[Cl-] (stereo unspecified) :: 2.1

====

# method.notes: The hydrolytic kinetics expressed as Kobs was measured at 7.4 pH at 37 degree C
# Type: ADME
# details: pH 7.4
measured.quantity: K obs (min⁻¹)

CC(C(=O)OC[N+]1(C)CCCC1)(c1ccccc1)c1ccccc1.[Cl-] :: 0.000193
CC1CCC[N+]1(C)COC(=O)C1(c2ccccc2)CC1.[Cl-] (configuration not stated) :: 0.00055
C[N+]1(COC(=O)C2(c3ccccc3)CCCC2)CCCC1.[Cl-] :: 0.000181
CC[N+](CC)(CC)COC(=O)C1(c2ccccc2)CC1.[Cl-] :: 0.00055
C[N+]1(COC(=O)C2(c3ccccc3)CC2)CCCC1.[Cl-] :: 0.00068
C[N+]1(COC(=O)C(c2ccccc2)C2CCCC2)CCCC1.[Cl-] (configuration not stated) :: 0.000578
CC[N+](CC)(CC)COC(=O)C(c1ccccc1)C1CCCC1.[Cl-] (configuration not stated) :: 0.000361

All figures here come from ChEMBL document CHEMBL1121584.
